assay-target: T1, human insulin receptor isoform B with C-terminal C9 tag (human, UniProt P06213 28-1382)
T1 construct: membranes of stably transfected HEK293 cells; also called hIR-B; human IR-B
run-description: 125I-insulin competition SPA, hIR-B membranes, 0.001% NP-40
Experimental: The assays are performed with a SPA method using polyvinyltoluene (PVT) wheat germ agglutinin-coupled SPA beads (Perkin Elmer). Assay buffer contains 50 mM Tris-HCl, pH 7.5, 150 mM NaCl and either A) 0.1% w/v fatty-acid free BSA; B) 0.1% w/v fatty-acid free human serum albumin (HSA); C) 0.1% w/v rat serum albumin (RSA); or D) 0.001% Nonidet P-40 Substitute (NP-40, Roche Diagnostics). […]
The entries below come with measured Ki values attached.
A number alone suffices; assume nM.

Examples with answers:
{"columns": ["binder", "Ki, nM"],
 "data": [
  ["INS Analog 12 (other, single-chain insulin B-L2-A-L1-VHH fusion; also called Ex. 12) FVSQHLCGSHLVEALHLVCGERGFHYTPKTGGGGGGGIVEQCCHSICSLYQLENYCGPGPAPGPAPGPAPGPAPGPAPGPAPGPAPGPAEVQLLESGGGLVQPGGSLRLSCAASGRYIDETAVAWFRQAPGKEREFVAGIGGGVDITYYADSVKGRFTISRDNSKNTLYLQMNSLRPEDTAVYYCAARPGRPLITSKVADLYPYWGQGTLVTVSSPP", 42.8],
  ["INS Analog 11 (other, single-chain insulin B-L2-A-L1-VHH fusion; also called Ex. 11) FVSQHLCGSHLVEALHLVCGERGFFYTPKTGGGGGGGIVEQCCHSICSLEQLENYCGPGPAPGPAPGPAPGPAPGPAPGPAPGPAPGPAEVQLLESGGGLVQPGGSLRLSCAASGRYIDETAVAWFRQAPGKEREFVAGIGGGVDITYYADSVKGRFTISRDNSKNTLYLQMNSLRPEDTAVYYCAARPGRPLITSKVADLYPYWGQGTLVTVSSPP", 81.1],
  ["INS Analog 29 (other, single-chain insulin B-L2-A-L1-VHH fusion; also called Ex. 29) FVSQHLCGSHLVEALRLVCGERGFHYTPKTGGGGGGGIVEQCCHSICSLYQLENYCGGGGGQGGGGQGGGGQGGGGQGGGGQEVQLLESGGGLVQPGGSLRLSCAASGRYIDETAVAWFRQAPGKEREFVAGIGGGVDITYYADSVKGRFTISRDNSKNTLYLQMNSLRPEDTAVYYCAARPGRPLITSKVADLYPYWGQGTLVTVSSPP", 62.5],
  ["INS Analog 14 (other, single-chain insulin B-L2-A-L1-VHH fusion; also called Ex. 14) FVSQHLCGSHLVEALRLVCGERGFFYTPKTGGGGGGGIVEQCCTSICSLYQLENYCGPGPAPGPAPGPAPGPAPGPAPGPAPGPAPGPAEVQLLESGGGLVQPGGSLRLSCAASGRYIDETAVAWFRQAPGKEREFVAGIGGGVDITYYADSVKGRFTISRDNSKNTLYLQMNSLRPEDTAVYYCAARPGRPLITSKVADLYPYWGQGTLVTVSSPP", 234],
  ["INS Analog 13 (other, single-chain insulin B-L2-A-L1-VHH fusion; also called Ex. 13) FVSQHLCGSHLVEALHLVCGERGFHYTPKTGGGGGGGIVEQCCHSICSLEQLENYCGPGPAPGPAPGPAPGPAPGPAPGPAPGPAPGPAEVQLLESGGGLVQPGGSLRLSCAASGRYIDETAVAWFRQAPGKEREFVAGIGGGVDITYYADSVKGRFTISRDNSKNTLYLQMNSLRPEDTAVYYCAARPGRPLITSKVADLYPYWGQGTLVTVSSPP", 39.2]
]}

Prompt line: # lookup: Ki of INS Analog 26 (other, single-chain insulin B-L2-A-L1-VHH fusion; also called Ex. 26) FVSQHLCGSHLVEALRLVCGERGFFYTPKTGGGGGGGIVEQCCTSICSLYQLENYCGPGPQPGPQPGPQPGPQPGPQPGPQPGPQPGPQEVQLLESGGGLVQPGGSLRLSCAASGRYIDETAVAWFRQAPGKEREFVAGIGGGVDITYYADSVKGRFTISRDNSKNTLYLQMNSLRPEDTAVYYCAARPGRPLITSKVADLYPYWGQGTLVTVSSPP
Response line: 214

Prompt line: // repeat for INS Analog 7 (other, single-chain insulin B-L2-A-L1-VHH fusion; also called Ex. 7) FVSQHLCGSHLVEALYLVCGERGFFYTPKTGGGGGGGIVEQCCTSICSLYQLENYCGPGPAPGPAPGPAPGPAPGPAPGPAPGPAPGPAEVQLLESGGGLVQPGGSLRLSCAASGRYIDETAVAWFRQAPGKEREFVAGIGGGVDITYYADSVKGRFTISRDNSKNTLYLQMNSLRPEDTAVYYCAARPGRPLITSKVADLYPYWGQGTLVTVSSPP and report
Response line: 45.4

Prompt line: Can you handle INS Analog 17 (other, single-chain insulin B-L2-A-L1-VHH fusion; also called Ex. 17) FVSQHLCGSHLVEALRLVCGERGFFYTPKTGGGGGGGIVEQCCHSICSLYQLENYCGPGPAPGPAPGPAPGPAPGPAPGPAPGPAPGPAEVQLLESGGGLVQPGGSLRLSCAASGRYIDETAVAWFRQAPGKEREFVAGIGGGVDITYYADSVKGRFTISRDNSKNTLYLQMNSLRPEDTAVYYCAARPGRPLITSKVADLYPYWGQGTLVTVSSPP next?
Response line: 44.3
